Assay: Cytotoxicity against rat INS1 cells assessed as cell viability at 10 uM incubated for 24 hrs by MTT assay relative to untreated control
Format: cell-based
Conditions: read-out: Activity
Examples of molecules with documented viability at 24 h, 10 µM follow.
Measure name: viability at 24 h, 10 µM (%)

| Molecule | Assay value |
| --- | --- |
| COc1ccc(NC(=O)c2cc(Cc3ccc(F)cc3)n[nH]2)cc1 | 95.6 |
| COc1ccc(Cc2cc(C(=O)Nc3ccccc3)[nH]n2)cc1 | 105 |
| COc1ccc(Cc2cc(C(=O)Nc3ccc4c(c3)OCO4)[nH]n2)cc1 | 102 |
| Cc1ccc(S(=O)(=O)NC(=O)NN2CC3CCCC3C2)cc1 (stereo not given) [GLICLAZIDE] | 98.7 |
| COc1ccccc1NC(=O)c1cc(Cc2ccc(F)cc2)n[nH]1 | 104 |
| COc1ccc(Cc2cc(C(=O)Nc3cc(OC)ccc3OC)[nH]n2)cc1 | 100 |
| COc1ccc(NC(=O)c2cc(C(=O)c3ccc(Cl)cc3)n[nH]2)c(OC)c1 | 100 |
| COc1ccc(Cc2cc(C(=O)Nc3ccc(OC)cc3)[nH]n2)cc1 | 105 |
| CC(C)(C)c1ccc(NC(=O)c2cc(Cc3ccc(Cl)cc3)n[nH]2)cc1 | 97.5 |
| COc1ccc(Cc2cc(C(=O)Nc3ccc(OC)cc3OC)[nH]n2)cc1 | 101 |

###

Assay: Cytotoxicity against rat INS1 cells assessed as cell viability at 10 uM incubated for 24 hrs by MTT assay relative to untreated control
Assay type: cell-based
Settings: read-out: Activity
Examples of compounds with documented viability at 24 h, 10 µM follow.
Measure name: viability at 24 h, 10 µM (%)

| Smiles input | Assay value |
| --- | --- |
| O=C(Nc1ccccc1)c1cc(Cc2ccc(F)cc2)n[nH]1 | 100 |
| O=C(Nc1ccc2c(c1)OCO2)c1cc(Cc2ccc(F)cc2)n[nH]1 | 97.6 |
| COc1cccc(NC(=O)c2cc(Cc3ccc(F)cc3)n[nH]2)c1 | 101 |
| COc1ccc(Cc2cc(C(=O)Nc3cccc(OC)c3)[nH]n2)cc1 | 102 |
| COc1ccc(Cc2cc(C(=O)Nc3ccc(C(F)(F)F)cc3)[nH]n2)cc1 | 98.4 |
| COc1ccc(NC(=O)c2cc(Cc3cccc(Cl)c3)n[nH]2)c(OC)c1 | 97.7 |
| COc1ccc(NC(=O)c2cc(Cc3ccccc3Cl)n[nH]2)c(OC)c1 | 102 |
| CC(C)(C)c1ccc(NC(=O)c2cc(Cc3ccc(F)cc3)n[nH]2)cc1 | 98.6 |
| COc1ccc(Cc2cc(C(=O)Nc3ccc(F)cc3)[nH]n2)cc1 | 105 |
| COC(=O)c1ccc(NC(=O)c2cc(Cc3ccc(Cl)cc3)n[nH]2)cc1 | 101 |
| COc1ccc(NC(=O)c2cc(Cc3ccc(Cl)cc3)nn2C)c(OC)c1 | 96.2 |

###

Assay: Cytotoxicity against rat INS1 cells assessed as cell viability at 10 uM incubated for 24 hrs by MTT assay relative to untreated control
Format: cell-based
Settings: read-out: Activity

| Smiles input | Measurement units | viability at 24 h, 10 µM |
| --- | --- | --- |
| COc1ccc(OC)c(NC(=O)c2cc(Cc3ccc(Cl)cc3)n[nH]2)c1 | % | 97.9 |
| COc1ccccc1NC(=O)c1cc(Cc2ccc(Cl)cc2)n[nH]1 | % | 98.1 |
| O=C(Nc1ccccc1)c1cc(Cc2ccc(Cl)cc2)n[nH]1 | % | 109 |
| COc1ccc(N(C)C(=O)c2cc(Cc3ccc(Cl)cc3)n[nH]2)c(OC)c1 | % | 93.3 |
| O=C(Nc1ccc2c(c1)OCO2)c1cc(Cc2ccc(Cl)cc2)n[nH]1 | % | 101 |
| COc1ccc(Cc2cc(C(=O)Nc3ccc(C(C)(C)C)cc3)[nH]n2)cc1 | % | 99.4 |
| COc1cccc(NC(=O)c2cc(Cc3ccc(Cl)cc3)n[nH]2)c1OC | % | 98.8 |
| COc1ccc(NC(=O)c2cc(Cc3ccc(F)cc3)n[nH]2)c(OC)c1 | % | 99.9 |
| COc1ccc(Cc2cc(C(=O)Nc3ccccc3OC)[nH]n2)cc1 | % | 101 |
| COC(=O)c1ccc(NC(=O)c2cc(Cc3ccc(F)cc3)n[nH]2)cc1 | % | 102 |
